# subject-of-test: Prostaglandin E2 receptor EP3 subtype (Homo sapiens, UniProt P43115)
# Sequence (P43115 whole entry): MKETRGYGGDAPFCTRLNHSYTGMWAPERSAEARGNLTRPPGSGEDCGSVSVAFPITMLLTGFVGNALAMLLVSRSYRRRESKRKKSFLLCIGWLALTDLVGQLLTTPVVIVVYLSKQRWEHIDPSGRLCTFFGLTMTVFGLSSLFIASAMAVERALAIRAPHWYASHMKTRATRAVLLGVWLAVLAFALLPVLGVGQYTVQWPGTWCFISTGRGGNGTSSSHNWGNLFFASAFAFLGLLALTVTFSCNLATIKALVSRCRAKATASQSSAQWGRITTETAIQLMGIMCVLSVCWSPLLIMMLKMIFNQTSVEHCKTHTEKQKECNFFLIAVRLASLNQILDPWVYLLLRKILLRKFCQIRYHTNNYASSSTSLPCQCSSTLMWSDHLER
# measurement-notes: Displacement of [3H]PGE2 from human EP3 receptor in presence of 10% human serum
Give IC50 for every item shown.
// units = nM; emit number, no label

Kindly note: Prostaglandin E2 receptor EP3 subtype (Homo sapiens, UniProt P43115), O=C(/C=C/c1cccc2c1N(Cc1ccc(Cl)cc1Cl)C(=O)C2(F)F)NS(=O)(=O)c1cccc(Cl)c1 , IC50 value reported: 7.7

Kindly note: Prostaglandin E2 receptor EP3 subtype (Homo sapiens, UniProt P43115), O=C(/C=C/c1cccc2c1N(Cc1ccc3ccccc3c1)C(=O)C2(F)F)NS(=O)(=O)c1cc(F)c(F)cc1F , IC50 value reported: 9.3

Kindly note: Prostaglandin E2 receptor EP3 subtype (Homo sapiens, UniProt P43115), O=C(/C=C/c1cccc2c1N(Cc1ccc3ccccc3c1)C(=O)C2)NS(=O)(=O)c1cccc(Cl)c1 , IC50 value reported: 8.1

Kindly note: Prostaglandin E2 receptor EP3 subtype (Homo sapiens, UniProt P43115), O=C(/C=C/c1cccc2c1N(Cc1ccc(Cl)cc1Cl)C(=O)C2(F)F)NS(=O)(=O)c1ccc(F)cc1 , IC50 value reported: 64.7

Kindly note: Prostaglandin E2 receptor EP3 subtype (Homo sapiens, UniProt P43115), O=C(/C=C/c1cccc2c1N(Cc1ccc3ccccc3c1)C(=O)C2O)NS(=O)(=O)c1ccc(F)c(F)c1 (stereo unspecified) , IC50 value reported: 7.6

Kindly note: Prostaglandin E2 receptor EP3 subtype (Homo sapiens, UniProt P43115), O=C(/C=C/c1cccc2c1N(Cc1ccc3ccccc3c1)C(=O)C2)NS(=O)(=O)c1cc(F)c(F)cc1F , IC50 value reported: 10.2

---

# measurement-notes: Metabolic stability in human liver microsomes assessed as parent compound remaining after 30 mins
# Assay type: ADME, Microsome
# settings: read-out: Stability
metric: remaining at 0.5 h (%)
// units = %; emit number, no label

For this molecule ( O=C(/C=C/c1cccc2c1N(Cc1ccc3ccccc3c1)C(=O)C2(F)F)NS(=O)(=O)c1cccc(Cl)c1 ), measured remaining at 0.5 h is 64.5

For this molecule ( O=C(/C=C/c1cccc2c1N(Cc1ccc3ccccc3c1)C(=O)C2)NS(=O)(=O)c1cc(Cl)c(Cl)s1 ), measured remaining at 0.5 h is 105

For this molecule ( CC1C(=O)N(Cc2ccc(Cl)cc2Cl)c2c(/C=C/C(=O)NS(=O)(=O)c3ccc(F)c(F)c3)cccc21 (centres undefined) ), measured remaining at 0.5 h is 64.7

For this molecule ( CC1C(=O)N(Cc2ccc3ccccc3c2)c2c(/C=C/C(=O)NS(=O)(=O)c3ccc(Cl)c(Cl)c3)cccc21 (centres undefined) ), measured remaining at 0.5 h is 36.4

For this molecule ( O=C(/C=C/c1cccc2c1N(Cc1ccc(Cl)cc1Cl)C(=O)C2(F)F)NS(=O)(=O)c1cc(F)c(F)cc1F ), measured remaining at 0.5 h is 74.6

For this molecule ( O=C(/C=C/c1cccc2c1N(Cc1ccc3ccccc3c1)C(=O)C2O)NS(=O)(=O)c1cc(F)c(F)cc1F (centres undefined) ), measured remaining at 0.5 h is 95.6

For this molecule ( O=C(/C=C/c1cccc2c1N(Cc1ccc(Cl)cc1Cl)C(=O)C2)NS(=O)(=O)c1cc(Cl)c(Cl)s1 ), measured remaining at 0.5 h is 76.8

For this molecule ( O=C(/C=C/c1cccc2c1N(Cc1ccc3ccccc3c1)C(=O)C2(F)F)NS(=O)(=O)c1ccc(F)c(F)c1 ), measured remaining at 0.5 h is 68.1

For this molecule ( O=C(/C=C/c1cccc2c1N(Cc1ccc3ccccc3c1)C(=O)C2O)NS(=O)(=O)c1ccc(F)cc1 (centres undefined) ), measured remaining at 0.5 h is 97.7

---

# measurement-notes: Metabolic stability in human liver microsomes assessed as parent compound remaining after 30 mins
# Type: ADME, Microsome
# settings: read-out: Stability
Lab note: cut-off is 70%. Strictly less in remaining at 0.5 h is Y. Exactly 70% or more is N.

Does this compound meet the criterion remaining at 0.5 h < 70%? CC1C(=O)N(Cc2ccc(Cl)cc2Cl)c2c(/C=C/C(=O)NS(=O)(=O)c3cc(F)c(F)cc3F)cccc21 (stereo not given) Y

Does this compound meet the criterion remaining at 0.5 h < 70%? O=C(/C=C/c1cccc2c1N(Cc1ccc(Cl)cc1Cl)C(=O)C2)NS(=O)(=O)c1cccc(Cl)c1 Y

Does this compound meet the criterion remaining at 0.5 h < 70%? O=C(/C=C/c1cccc2c1N(Cc1ccc3ccccc3c1)C(=O)C2(F)F)NS(=O)(=O)c1ccc(Cl)c(Cl)c1 N

Does this compound meet the criterion remaining at 0.5 h < 70%? O=C(/C=C/c1cccc2c1N(Cc1ccc3ccccc3c1)C(=O)C2)NS(=O)(=O)c1cccc(Cl)c1 Y

---

Give IC50 for every item shown.
# subject-of-test: UniProt P43115
# measurement-notes: Displacement of [3H]PGE2 from human EP3 receptor in buffer
// units = nM; emit number, no label

For this compound ( O=C(/C=C/c1cccc2c1N(Cc1ccc3ccccc3c1)C(=O)C2)NS(=O)(=O)c1cccs1 ), measured IC50 is 23.6

For this compound ( CC1C(=O)N(Cc2ccc3ccccc3c2)c2c(/C=C/C(=O)NS(=O)(=O)c3cccs3)cccc21 (centres undefined) ), measured IC50 is 3.5

For this compound ( CC1C(=O)N(Cc2ccc(F)c(F)c2)c2c(/C=C/C(=O)NS(=O)(=O)c3ccc(Cl)c(Cl)c3)cccc21 (centres undefined) ), measured IC50 is 0.9

For this compound ( CC1C(=O)N(Cc2ccc(Cl)cc2Cl)c2c(/C=C/C(=O)NS(=O)(=O)c3ccc(Cl)c(Cl)c3)cccc21 (centres undefined) ), measured IC50 is 0.9

---

# measurement-notes: Metabolic stability in rat liver microsomes assessed as parent compound remaining after 30 mins
# Type: ADME, Microsome
# settings: read-out: Stability
metric: remaining at 0.5 h (%)
// units = %; emit number, no label

For this compound ( O=C(/C=C/c1cccc2c1N(Cc1ccc3ccccc3c1)C(=O)C2O)NS(=O)(=O)c1cc(F)c(F)cc1F (configuration not stated) ), measured remaining at 0.5 h is 99.7

For this compound ( O=C(/C=C/c1cccc2c1N(Cc1ccc3ccccc3c1)C(=O)C2O)NS(=O)(=O)c1ccc(F)c(F)c1 (configuration not stated) ), measured remaining at 0.5 h is 87.9

For this compound ( CC1C(=O)N(Cc2ccc3ccccc3c2)c2c(/C=C/C(=O)NS(=O)(=O)c3cccc(Cl)c3)cccc21 (configuration not stated) ), measured remaining at 0.5 h is 13.1

For this compound ( O=C(/C=C/c1cccc2c1N(Cc1ccc(Cl)cc1Cl)C(=O)C2(F)F)NS(=O)(=O)c1cc(F)c(F)cc1F ), measured remaining at 0.5 h is 77.4

For this compound ( O=C(/C=C/c1cccc2c1N(Cc1ccc3ccccc3c1)C(=O)C2)NS(=O)(=O)c1cccc(Cl)c1 ), measured remaining at 0.5 h is 29.8

For this compound ( O=C(/C=C/c1cccc2c1N(Cc1ccc3ccccc3c1)C(=O)C2(F)F)NS(=O)(=O)c1cc(F)c(F)cc1F ), measured remaining at 0.5 h is 54.2

For this compound ( O=C(/C=C/c1cccc2c1N(Cc1ccc3ccccc3c1)C(=O)C2(F)F)NS(=O)(=O)c1ccc(F)c(F)c1 ), measured remaining at 0.5 h is 45
